The measured values listed here are drawn from the supplement of paper PMC3545927.

TARGET OF ASSAY: furin, P09958;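 further: purified furin at 1:10 enzyme:substrate in 50 mM HEPES pH 7.5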
Sequence (P09958 whole entry): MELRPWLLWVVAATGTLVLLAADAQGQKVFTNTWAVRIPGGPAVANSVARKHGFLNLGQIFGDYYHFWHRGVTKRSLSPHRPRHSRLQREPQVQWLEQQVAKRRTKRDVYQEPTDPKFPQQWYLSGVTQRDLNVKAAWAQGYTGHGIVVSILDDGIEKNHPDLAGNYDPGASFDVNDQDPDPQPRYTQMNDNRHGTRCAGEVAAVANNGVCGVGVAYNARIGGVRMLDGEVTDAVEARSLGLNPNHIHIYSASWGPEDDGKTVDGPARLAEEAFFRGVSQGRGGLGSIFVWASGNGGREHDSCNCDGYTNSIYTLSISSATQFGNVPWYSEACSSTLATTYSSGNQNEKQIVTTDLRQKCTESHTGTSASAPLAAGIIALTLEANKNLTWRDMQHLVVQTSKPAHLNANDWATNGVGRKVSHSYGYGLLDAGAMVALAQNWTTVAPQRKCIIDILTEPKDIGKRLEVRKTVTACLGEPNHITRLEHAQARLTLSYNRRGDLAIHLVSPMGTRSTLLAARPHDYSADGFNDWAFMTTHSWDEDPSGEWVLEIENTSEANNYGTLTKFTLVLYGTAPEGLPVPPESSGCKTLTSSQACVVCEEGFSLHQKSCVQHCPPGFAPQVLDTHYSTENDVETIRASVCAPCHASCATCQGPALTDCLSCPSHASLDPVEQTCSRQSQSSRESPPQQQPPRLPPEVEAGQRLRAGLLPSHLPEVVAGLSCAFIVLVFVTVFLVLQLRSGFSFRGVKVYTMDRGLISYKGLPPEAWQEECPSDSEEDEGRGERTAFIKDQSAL
ASSAY REMARKS: furin cleavage Z-score vs untreated control; higher = more cleavage, active = 3.5 or more, inactive = 1 or less, 8 variable residues between constant flanks
TEST PARAMETERS: 30 min
The list shows a part of the results. The hit rate among all sequences tested is not known here.
The label depends only on furin cleavage Z-score: class 1 if it is at least 5, class 0 if it is smaller.

# example entries with known answers
In [3]: df
Out[3]:
                  residue_codes  class_name
0   CAIKSLTERLAGNASASA [HC1497]     class 0
1  CARRRRSLRRAGNASASA [FS-2454]     class 1
2   CAVNQRVRRAAGNASASA [FS-735]     class 1

[Q] Quick check, furin cleavage Z-score >= 5? CAADPRVRRAAGNASASA [FS-1298]
[A] class 1

[Q] Quick check, furin cleavage Z-score >= 5? CAEGVVCCSMAGNASASA [HC2136]
[A] class 0

[Q] Quick check, furin cleavage Z-score >= 5? CAQKKRGGTAAGNASASA [WN2]
[A] class 0

[Q] Quick check, furin cleavage Z-score >= 5? CAEHVVCCSMAGNASASA [HC2135]
[A] class 0

[Q] Quick check, furin cleavage Z-score >= 5? CATGLTHIDAAGNASASA [HC942]
[A] class 0
